# study target: MDMX (Homo sapiens, UniProt O15151)
# Sequence (O15151 1-125): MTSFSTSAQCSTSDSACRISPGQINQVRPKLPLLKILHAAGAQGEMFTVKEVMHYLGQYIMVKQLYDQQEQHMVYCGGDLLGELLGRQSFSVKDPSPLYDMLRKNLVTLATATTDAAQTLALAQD
# run description: Competitive fluorescence polarization assay for MDMX
# Format: binding
# assay setup: competitive FP assay, read-out: IC50 (MDMX)
pIC50: −log10 of the molar value. Where a SMILES comes first, the peptide text is derived from it. Bridges are numbered along the chain shown (N, C = ends). [ ]: non-standard residue; d: D form. Trp(6-Cl) = N[C@@H](Cc1c[nH]c2cc(Cl)ccc12)C(=O)O; R8 = C=CCCCCCC[C@@](C)(N)C(=O)O; S5 = C=CCCC[C@](C)(N)C(=O)O
property name: pIC50

Inquiry: Output reported pIC50 of the compound CC(=O)N[C@@H](CC(C)C)C(=O)N[C@H](C(=O)N[C@@H](Cc1ccccc1)C(=O)N[C@]1(C)CCCCCC/C=C/CCC[C@@](C)(C(=O)N[C@@H](CO)C(=O)N[C@@H](C)C(=O)N[C@@H](C)C(N)=O)NC(=O)[C@H](CC(C)C)NC(=O)[C@H](CCC(N)=O)NC(=O)[C@H](C)NC(=O)[C@H](Cc2c[nH]c3cc(Cl)ccc23)NC(=O)[C@H](Cc2ccc(O)cc2)NC(=O)[C@H](C)NC1=O)[C@@H](C)O [compound 99] (Ac-LTF[R8]AY[Trp(6-Cl)]AQL[S5]SAA-NH2; staple (E) 4-11) on MDMX (Homo sapiens, UniProt O15151).
Reply text: 6.00 to 7.00

----------
# study target: MDM2 (Homo sapiens)
# Sequence (Q00987 1-125): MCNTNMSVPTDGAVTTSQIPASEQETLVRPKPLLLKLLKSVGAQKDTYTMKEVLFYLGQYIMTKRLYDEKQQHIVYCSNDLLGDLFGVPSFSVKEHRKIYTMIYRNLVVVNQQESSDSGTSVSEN
# run description: Competitive fluorescence polarization assay for MDM2
# Assay type: binding
# assay setup: competitive FP assay, MDM2; read-out: IC50 (MDM2)
property name: IC50

Inquiry: Let me know recorded IC50 for CC(=O)N[C@@H](CC(C)C)C(=O)N[C@H](C(=O)N[C@@H](Cc1ccccc1)C(=O)N[C@]1(C)CCCCCCC=CCCC[C@@](C)(C(=O)N[C@@H](C)C(=O)N[C@@H](C)C(=O)N[C@@H](CC(C)C)C(=O)N[C@H](C)C(N)=O)NC(=O)[C@H](CC(C)C)NC(=O)[C@H](CCC(N)=O)NC(=O)[C@H](C)NC(=O)[C@H](Cc2c[nH]c3ccccc23)NC(=O)[C@H](Cc2c[nH]cn2)NC(=O)[C@H](CCC(=O)O)NC1=O)[C@@H](C)O (single isomer, unassigned) , thanks.
Reply text: < 10 nM

----------
# study target: MDM2 (Homo sapiens)
# run description: Competitive fluorescence polarization assay for MDM2
# Assay type: binding
# assay setup: competitive FP assay, MDM2; read-out: Ki (MDM2)
pKi: −log10 of the molar value. Where a SMILES comes first, the peptide text is derived from it. Bridges are numbered along the chain shown (N, C = ends). [ ]: non-standard residue; d: D form. R8 = C=CCCCCCC[C@@](C)(N)C(=O)O; hLeu = CC(C)CC[C@H](N)C(=O)O; S5 = C=CCCC[C@](C)(N)C(=O)O; Nle = CCCC[C@H](N)C(=O)O
Would you kindly list pKi for each of these molecules?

{"molecule": "CC(=O)N[C@@H](CC(C)C)C(=O)N[C@H](C(=O)N[C@@H](Cc1ccccc1)C(=O)N[C@]1(C)CCCCCCCCCCC[C@@](C)(C(=O)N[C@@H](CO)C(=O)N[C@@H](C)C(=O)N[C@@H](C)C(N)=O)NC(=O)[C@H](CC2CCC2)NC(=O)[C@H](CCC(N)=O)NC(=O)[C@H](C)NC(=O)[C@H](Cc2c[nH]c3ccccc23)NC(=O)[C@H](Cc2ccc(O)cc2)NC(=O)[C@H](CCC(=O)O)NC1=O)[C@@H](C)O", "recorded result": "> 8.00"}
{"molecule": "CC(=O)N[C@@H](C)C(=O)N[C@@H](CC(C)C)C(=O)N[C@H](C(=O)N[C@@H](Cc1ccccc1)C(=O)N[C@]1(C)CCCCCCC=CCCC[C@@](C)(C(=O)N[C@@H](CO)C(=O)N[C@@H](C)C(=O)N[C@@H](C)C(=O)N[C@@H](C)C(=O)N[C@H](C)C(N)=O)NC(=O)[C@H](CC2CCC2)NC(=O)[C@H](CCC(N)=O)NC(=O)[C@H](C)NC(=O)[C@H](Cc2c[nH]c3ccccc23)NC(=O)[C@H](Cc2ccc(O)cc2)NC(=O)[C@H](CCC(=O)O)NC1=O)[C@@H](C)O (single isomer, unassigned)", "recorded result": "> 8.00"}
{"molecule": "CC(=O)N[C@@H](CC(C)C)C(=O)N[C@H](C(=O)N[C@@H](Cc1ccccc1)C(=O)N[C@]1(C)CCCCCCC=CCCC[C@@](C)(C(=O)N[C@@H](C)C(=O)N[C@@H](C)C(=O)N[C@@H](C)C(=O)N[C@@H](C)C(=O)N[C@@H](C)C(=O)N[C@H](C)C(N)=O)NC(=O)[C@H](CC2CCC2)NC(=O)[C@H](CCC(N)=O)NC(=O)[C@H](C)NC(=O)[C@H](Cc2c[nH]c3ccccc23)NC(=O)[C@H](Cc2ccc(O)cc2)NC(=O)[C@H](CCC(=O)O)NC1=O)[C@@H](C)O (single isomer, unassigned)", "recorded result": "> 8.00"}
{"molecule": "CC[C@H](C)[C@H](NC(=O)[C@H](C)NC(=O)[C@H](C)NC(=O)[C@]1(C)CCCC=CCCCCCC[C@@](C)(NC(=O)[C@H](Cc2ccccc2)NC(=O)[C@@H](NC(=O)[C@H](CC(C)C)NC(C)=O)[C@@H](C)O)C(=O)N[C@@H](CCC(=O)O)C(=O)N[C@@H](Cc2ccc(O)cc2)C(=O)N[C@@H](Cc2c[nH]c3ccccc23)C(=O)N[C@@H](C)C(=O)N[C@@H](CCC(N)=O)C(=O)N[C@@H](CC(C)C)C(=O)N1)C(=O)N[C@H](C)C(N)=O (single isomer, unassigned)", "recorded result": "> 8.00"}
{"molecule": "CCCC[C@H](NC(=O)[C@H](C)NC(=O)[C@H](CCC(N)=O)NC(=O)[C@H](Cc1c[nH]cn1)NC(=O)[C@]1(C)CCCC=CCCCCCC[C@@](C)(NC(=O)[C@H](Cc2ccccc2)NC(C)=O)C(=O)N[C@@H](C)C(=O)N[C@@H](Cc2ccc(O)cc2)C(=O)N[C@@H](Cc2c[nH]c3ccccc23)C(=O)N[C@@H](CO)C(=O)N[C@@H](C)C(=O)N[C@@H](CC(C)C)C(=O)N1)C(N)=O [compound 39] (Ac-F[R8]AYWSAL[S5]HQA[Nle]-NH2; staple 2-9)", "recorded result": "6.00 to 7.00"}

Batch: pKi for all items listed.
1. CCCC[C@H](NC(=O)[C@H](C)NC(=O)[C@H](C)NC(=O)[C@]1(C)CCCC=CCCCCCC[C@@](C)(NC(=O)[C@H](Cc2ccccc2)NC(=O)[C@@H](NC(=O)[C@H](CC(C)C)NC(C)=O)[C@@H](C)O)C(=O)N[C@@H](C)C(=O)N[C@@H](Cc2ccc(O)cc2)C(=O)N(C)[C@@H](Cc2c[nH]c3ccccc23)C(=O)N[C@@H](C)C(=O)N[C@@H](CCC(N)=O)C(=O)N[C@@H](CC(C)C)C(=O)N1)C(=O)N[C@@H](C)C(N)=O (single isomer, unassigned)
2. CCCC[C@H](NC(=O)[C@H](C)NC(=O)[C@H](C)NC(=O)[C@]1(C)CCCC=CCCCCCC[C@@](C)(NC(=O)[C@H](Cc2ccccc2)NC(=O)[C@@H](NC(=O)[C@H](CC(C)C)NC(C)=O)[C@@H](C)O)C(=O)N[C@@H](C)C(=O)N[C@@H](Cc2ccc(O)cc2)C(=O)N[C@@H](Cc2c[nH]c3ccccc23)C(=O)N[C@@H](C)C(=O)N[C@@H](CCC(N)=O)C(=O)N[C@@H](CC(C)C)C(=O)N1)C(=O)N[C@@H](C)C(=O)N[C@H](C)C(N)=O (single isomer, unassigned)
3. CC(=O)N[C@@H](CC(C)C)C(=O)N[C@H](C(=O)N[C@@H](Cc1ccccc1)C(=O)N[C@]1(C)CCCCCC/C=C/CCC[C@@](C)(C(=O)N[C@@H](CO)C(=O)N[C@@H](C)C(=O)N[C@@H](C)C(N)=O)NC(=O)[C@H](CCC(C)C)NC(=O)[C@H](CCC(N)=O)NC(=O)[C@H](C)NC(=O)[C@H](Cc2c[nH]c3ccccc23)NC(=O)[C@H](Cc2ccc(O)cc2)NC(=O)[C@H](C)NC1=O)[C@@H](C)O [compound 115] (Ac-LTF[R8]AYWAQ[hLeu][S5]SAA-NH2; staple (E) 4-11)

Reply text:
1: 6.00 to 7.00; 2: > 8.00; 3: > 8.00
